In this section, each of the compounds is paired with its reported 3 month aqueous stability at 40° C..
- method.notes: Aqueous stability in HBSS buffer at 40° C. (HPLC-UV)
- Assay type: physicochemical
- measurement.setup: 3% wt/wt or 0.4% wt/wt in HBSS buffer, glass vials, 3 month, 40° C., HPLC-UV; in % (unit assumed)
Residues, ends and D or L forms follow the SMILES beside them.
parameter: 3 month aqueous stability at 40° C.

[[record]]
compound = "CC[C@H](C)[C@H](N)C(=O)N1CCC[C@H]1C(=O)O [Ile-Pro] (H-Ile-Pro-OH)"
parameter = "3 month aqueous stability at 40° C."
result = 102.0

[[record]]
compound = "NCCC(=O)N[C@@H](Cc1c[nH]cn1)C(=O)O"
parameter = "3 month aqueous stability at 40° C."
result = 99.7

[[record]]
compound = "N[C@@H](CO)C(=O)N1CCC[C@H]1C(=O)O [Ser-Pro] (H-Ser-Pro-OH)"
parameter = "3 month aqueous stability at 40° C."
result = 88.5

[[record]]
compound = "NCC(=O)N[C@@H](CCC(=O)O)C(=O)O [Gly-Glu] (H-Gly-Glu-OH)"
parameter = "3 month aqueous stability at 40° C."
result = 99.7

[[record]]
compound = "CC(C)[C@H](N)C(=O)N1CCC[C@H]1C(=O)O [Val-Pro] (H-Val-Pro-OH)"
parameter = "3 month aqueous stability at 40° C."
result = 80.9

[[record]]
compound = "NCC(=O)NC(CO)C(=O)O (stereo not shown)"
parameter = "3 month aqueous stability at 40° C."
result = 70.7

[[record]]
compound = "C[C@H](NC(=O)[C@@H](N)Cc1ccc(O)cc1)C(=O)O"
parameter = "3 month aqueous stability at 40° C."
result = 94.0


###

- method.notes: Aqueous stability in HBSS buffer at 40° C. (HPLC-UV)
- Format: physicochemical
- measurement.setup: 3% wt/wt or 0.4% wt/wt in HBSS buffer, glass vials, 1 month, 40° C., HPLC-UV; in % (unit assumed)
Residues, ends and D or L forms follow the SMILES beside them.
In this section, each of the compounds is paired with its reported 1 month aqueous stability at 40° C..
parameter: 1 month aqueous stability at 40° C.

[[record]]
compound = "C[C@H](N)C(=O)N[C@@H](CCC(N)=O)C(=O)O [Ala-Gln] (H-Ala-Gln-OH)"
parameter = "1 month aqueous stability at 40° C."
result = 100.6

[[record]]
compound = "C[C@H](NC(=O)[C@@H](N)Cc1ccc(O)cc1)C(=O)O"
parameter = "1 month aqueous stability at 40° C."
result = 100.4

[[record]]
compound = "CC(C)[C@H](N)C(=O)N1CCC[C@H]1C(=O)O [Val-Pro] (H-Val-Pro-OH)"
parameter = "1 month aqueous stability at 40° C."
result = 90.5

[[record]]
compound = "C[C@H](N)C(=O)N[C@@H](CCC(=O)O)C(=O)O [Ala-Glu] (H-Ala-Glu-OH)"
parameter = "1 month aqueous stability at 40° C."
result = 99.1

[[record]]
compound = "CC[C@H](C)[C@H](N)C(=O)N1CCC[C@H]1C(=O)O [Ile-Pro] (H-Ile-Pro-OH)"
parameter = "1 month aqueous stability at 40° C."
result = 99.1

[[record]]
compound = "N[C@@H](CO)C(=O)N1CCC[C@H]1C(=O)O [Ser-Pro] (H-Ser-Pro-OH)"
parameter = "1 month aqueous stability at 40° C."
result = 95.5

[[record]]
compound = "NCCC(=O)N[C@@H](Cc1c[nH]cn1)C(=O)O"
parameter = "1 month aqueous stability at 40° C."
result = 98.4

[[record]]
compound = "NCC(=O)NC(CO)C(=O)O (centres unmarked)"
parameter = "1 month aqueous stability at 40° C."
result = 97.8

